Measured EC50 values are reported for all entries that follow.
System: BaF3 parental line
measurement-description: In vitro cell proliferation potency assay, BaF3 parental line with IL-3 (Cell Titer Glo)
Assay type: cell-based, murine
reported-conditions: Mus musculus; BaF3 parental cells with mIL-3, incubated overnight; read-out: Prolif BaF3 IL3 (EC50)

NC(=O)c1nn(C2CCC(N)CC2)c2c1ccc1cnc(-c3ccsc3)nc12 (stereo not shown) [Compound 112] | 2 µM
CSc1ncc2ccc3c(C(N)=O)nn(C(C)(C)C)c3c2n1 [Compound 85] | 13 µM
CSc1ncc2ccc3c(C(N)=O)nn(C4CCC(N)CC4)c3c2n1 (stereo not shown) [Compound 93] | 7.9 µM

We next turn to a different compound, shown below.
Problem: Could you share which EC50 value was measured for CN1CCN(c2ccc(Oc3ncc4ccc5c(C(N)=O)nn(C(C)(C)C)c5c4n3)cc2)CC1 [Compound 51] ?
Result: 9.3 µM
